Test system: RRV-2SG-NanoLuc
Assay: microbe, parasite or virus in culture
Format: cell-based, Ross River virus
Settings: Ross River virus, RPE, read-out: EC50 other
PROPERTY LABEL: EC50 (nM)

INSERT INTO results (compound, units_of_measure, observed) VALUES
  ('COc1c(C)c2c(c(O)c1C/C=C(\C)CCC(=O)O)C(=O)OC2 [Mycophenolic acid]', 'nM', 860);

* * *

Assay: in vitro
Conditions: human, CC50 CTxG
Property: CC50; scope: individual molecules
PROPERTY LABEL: CC50

INSERT INTO assay_data (molecule, observed) VALUES
  ('Nc1ncnc2c([C@@H]3N[C@H](CO)[C@@H](O)[C@H]3O)c[nH]c12', '> 30 µM'),
  ('CCN(CC)CCCC(C)Nc1ccnc2cc(Cl)ccc12 (stereo not drawn)', '> 30 µM'),
  ('Cc1ccc2c(c1)c1c3n2CCNC3CCC1 (stereo not drawn)', '> 30 µM'),
  ('COc1c(C)c2c(c(O)c1C/C=C(\C)CCC(=O)O)C(=O)OC2', '> 30 µM'),
  ('CCCCOc1cc(C(=O)NCCN(CC)CC)c2ccccc2n1', '> 30 µM'),
  ('CNCCC(Oc1ccc(C(F)(F)F)cc1)c1ccccc1 (stereo not drawn)', '7.33 µM');

Cited source for all entries: paper PMC7113852
